Test: Intrinsic clearance in human liver microsomes assessed as per mg of protein at 0.5 uM
Assay type: ADME, Microsome
measured_parameter: microsomal CLint at 0.5 µM (µL/min/mg)
Only the number, expressed in µL/min/mg, is required.

input: Give me measured microsomal CLint at 0.5 µM, please, for this compound: COc1cccc(N2CCN(Cc3c4c(=O)n(-c5ccccc5Cl)[nH]c4cc(=O)n3C)CC2)c1
output: 57.9

input: Identify measured microsomal CLint at 0.5 µM associated with Cc1c2c(=O)n(-c3ccccc3Cl)[nH]c2cc(=O)n1Cc1ccccn1
output: 24.8

input: Consider the compound COCCn1c(COc2ccc(F)cc2)c2c(=O)n(CCN3CCOCC3)[nH]c2cc1=O and give its recorded microsomal CLint at 0.5 µM.
output: 45.1

input: # return recorded microsomal CLint at 0.5 µM for entry Cn1c(COc2ccc(F)cc2)c2c(=O)n(-c3ccccc3Cl)[nH]c2cc1=O
output: 49.3

input: For the compound O=c1c2c(CN3CCCC3)n(CCc3ccccn3)c(=O)cc2[nH]n1-c1ccc(F)cc1Cl , report microsomal CLint at 0.5 µM.
output: 45.4

====

Experiment: Cmax in Sprague-Dawley rat at 5 mg/kg, sc
Assay type: ADME, organism-based
Parameters: dose 5 mg/kg, route subcutaneous
Settings: in vivo
measured_parameter: Cmax (ng/mL)
Please respond with the number in ng/mL and leave the unit unwritten.

input: Using the record for Cc1c2c(=O)n(-c3ccccc3)[nH]c2cc(=O)n1Cc1cccnc1 , state its measured Cmax.
output: 678

====

So I've got a bunch of molecules here, and I need their microsomal CLint at 0.5 µM values.
Test: Intrinsic clearance in Sprague-Dawley rat liver microsomes assessed per mg of protein at 0.5 uM
Assay type: ADME, Microsome
Give the value in µL/min/mg but do not write µL/min/mg after it.

input: Provide only the value of recorded microsomal CLint at 0.5 µM for Cc1c2c(=O)n(-c3ccccc3Cl)[nH]c2cc(=O)n1CC#Cc1ccccc1
output: 178

input: Entry COc1cccc(N2CCN(Cc3c4c(=O)n(-c5ccccc5Cl)[nH]c4cc(=O)n3C)CC2)c1 needs its microsomal CLint at 0.5 µM filled in; supply it.
output: 121

input: Given O=c1c2c(CN3CCCC3)n(CCc3ccccn3)c(=O)cc2[nH]n1-c1ccc(F)cc1Cl , respond with its microsomal CLint at 0.5 µM.
output: 62.3

input: Give a short answer stating reported microsomal CLint at 0.5 µM for COCCCn1c(CN(C)Cc2ccccc2)c2c(=O)n(-c3ccc(F)cc3Cl)[nH]c2cc1=O .
output: 248

input: // Input: O=c1c2c(COCc3ccccc3)n(Cc3cnccn3)c(=O)cc2[nH]n1-c1ccccc1Cl . Output its microsomal CLint at 0.5 µM only.
output: 49.5

====

Molecular target: Xanthine dehydrogenase/oxidase (Homo sapiens, UniProt P47989)
Sequence (P47989 whole entry): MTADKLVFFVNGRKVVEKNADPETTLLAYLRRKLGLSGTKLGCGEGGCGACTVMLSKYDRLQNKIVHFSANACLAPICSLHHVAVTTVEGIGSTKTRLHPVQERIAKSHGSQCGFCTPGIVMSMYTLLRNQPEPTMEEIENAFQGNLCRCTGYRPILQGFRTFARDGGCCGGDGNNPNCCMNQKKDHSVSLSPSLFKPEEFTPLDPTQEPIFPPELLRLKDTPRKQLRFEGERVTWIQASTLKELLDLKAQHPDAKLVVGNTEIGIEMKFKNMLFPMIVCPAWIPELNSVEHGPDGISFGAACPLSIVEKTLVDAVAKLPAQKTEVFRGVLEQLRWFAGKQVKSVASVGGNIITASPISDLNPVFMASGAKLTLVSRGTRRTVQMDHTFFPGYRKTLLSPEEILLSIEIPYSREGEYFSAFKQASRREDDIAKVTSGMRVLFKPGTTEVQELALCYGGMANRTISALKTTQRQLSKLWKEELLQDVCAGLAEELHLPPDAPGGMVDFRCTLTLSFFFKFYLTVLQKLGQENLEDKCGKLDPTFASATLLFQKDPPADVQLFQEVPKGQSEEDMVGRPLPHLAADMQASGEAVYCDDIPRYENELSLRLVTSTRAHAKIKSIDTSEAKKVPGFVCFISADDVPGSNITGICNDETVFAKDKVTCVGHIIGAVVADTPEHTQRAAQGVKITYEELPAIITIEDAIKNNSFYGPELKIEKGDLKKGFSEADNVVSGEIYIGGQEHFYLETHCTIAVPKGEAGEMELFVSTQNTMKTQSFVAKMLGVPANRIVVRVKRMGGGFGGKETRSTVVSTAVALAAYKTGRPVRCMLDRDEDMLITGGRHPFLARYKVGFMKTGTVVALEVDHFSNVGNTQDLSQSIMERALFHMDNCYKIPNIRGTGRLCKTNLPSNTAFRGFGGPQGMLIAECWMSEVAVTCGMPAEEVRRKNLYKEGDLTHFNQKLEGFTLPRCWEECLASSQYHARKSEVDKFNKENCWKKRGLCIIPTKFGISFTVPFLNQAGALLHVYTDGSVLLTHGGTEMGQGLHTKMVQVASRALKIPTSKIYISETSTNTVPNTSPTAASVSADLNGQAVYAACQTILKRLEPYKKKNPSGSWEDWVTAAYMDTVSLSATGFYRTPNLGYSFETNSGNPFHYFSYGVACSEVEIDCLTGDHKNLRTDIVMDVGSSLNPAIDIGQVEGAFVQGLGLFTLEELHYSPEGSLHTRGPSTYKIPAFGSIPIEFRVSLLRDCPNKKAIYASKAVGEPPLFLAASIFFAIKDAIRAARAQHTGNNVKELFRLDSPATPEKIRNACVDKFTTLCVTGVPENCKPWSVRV
Assay: Inhibition of xanthine oxidase by in vitro enzymatic assay in presence of xanthine
pKi: −log10 of the molar value.
Would you mind telling me the reported pKi of each entry?

input: Give pKi for Cc1c2c(=O)n(-c3ccccc3Cl)[nH]c2cc(=O)n1Cc1ccccn1
output: < 4.52

input: Dear colleague, please send me the reported pKi for Cc1c2c(=O)n(-c3ccccc3)[nH]c2cc(=O)n1Cc1cccnc1 when you can.
output: < 4.52

====

Test: Volume of distribution at steady state in Sprague-Dawley rat at 1 mg/kg, iv
Assay type: ADME, organism-based
Parameters: dose 1 mg/kg, route intravenous
Conditions: in vivo, read-out: Vdss
measured_parameter: Vd (L/kg)
The answer is to be given in L/kg; state only the numeric part.

input: Tell me measured Vd for Cc1c2c(=O)n(-c3ccccc3)[nH]c2cc(=O)n1Cc1cccnc1 please.
output: 2.36
